- assay-details: growth inhibition of non-replicating M. tuberculosis (AID 488890);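 note: plate controls were DMSO cells for no effect and high antibiotic wells for full effect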
- condition-set: Mycobacterium tuberculosis non-replicating, at 25 µM, stronger effect = higher value
Hit rate of the full screen: of about 320,000 compounds, about 1,300 (0.41%) were called active. Roughly 3% stayed inconclusive and do not appear here. The list is a sample of the results. Potency and affinity values are given separately.
reported-endpoint: inhibition (%)

COc1ccc(C(=O)NNC(=O)CCC(=O)NNC(=O)c2ccc(OC)cc2)cc1	8.31
CN(C)C(=O)c1cccn1-c1ncc(C(F)(F)F)cc1Cl	-7.62
COc1nc(NCCO)nc(Nc2ccc([N+](=O)[O-])cc2)n1	-18
COc1ccc(CN2C(=O)C(O)(CC(=O)c3ccc4c(c3)OCO4)c3ccccc32)cc1OC (stereo unspecified)	12.6
O=C(Nc1cccnc1)c1cc(-c2ccc(Cl)cc2)on1	71
CCCCn1c(=O)c(C(=O)Nc2ccccn2)c(O)c2ccccc21	27.8
Cc1ccccc1NC(=O)c1cccc(S(=O)(=O)Nc2cccc(C(=O)O)c2)c1	19.2
CCc1ccc(OCc2ccc(C(=O)NCc3ccccn3)o2)cc1	64.5
O=C(Nc1ccccn1)c1ccc(COc2ccccc2Cl)o1	72.4
CCOc1ccc(OCc2ccc(C(=O)O)o2)cc1	18.9
O=C(C1=NN[C@@H]2C(=O)N(Cc3ccccc3)C(=O)[C@H]12)c1ccc(F)cc1	5.43
COc1cccc(NS(=O)(=O)c2nc3nc(C)cc(C)n3n2)c1	-24.1
C/C(=N\NC(=O)c1ccccc1O)C1CC1	-6.46
Cc1cc(C)c(S(=O)(=O)N2CCCC(C(=O)N3CCCC3)C2)c(C)c1 (stereo unspecified)	-5.37
NC(=O)[C@@H]1CC2(CC(c3cccc(NC(=O)CC(c4ccccc4)c4ccccc4)c3)=NO2)CN1C(=O)[C@@H]1CCC(=O)N1 (stereo partly specified)	14.1
C=CCN(CC=C)C(=O)C1CC(=O)N(c2ccc(Br)cc2)C1 (stereo unspecified)	0.89
COc1cccc2c(N/N=C/c3ccccc3)cc(C)nc12	3.67
CCCCn1c(=O)c(C(=O)Nc2ccc(C)cn2)c(O)c2ccccc21	0.62
O=C(c1ccc(COc2ccccc2Cl)o1)N1CCCC1	-8.31
C/C(=N\NC(N)=O)c1cccc(Cl)c1	-5.88
Cc1cc(N/N=C/c2ccc(N(C)C)cc2)c2ccccc2n1	-1.58

* * *

- assay-details: growth inhibition of non-replicating M. tuberculosis (AID 488890);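 note: plate controls were DMSO cells for no effect and high antibiotic wells for full effect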
- condition-set: Mycobacterium tuberculosis non-replicating, at 25 µM, stronger effect = higher value
Among all 320,000 compounds or so, about 1,300 (0.41%) were called active. Inconclusive results (about 3%) are left out. These entries were drawn from the full list. Potency and affinity values are given separately.
Reported inhibition values for a set of compounds
reported-endpoint: inhibition (%)

COc1ccc(NC(=O)NCCN2CCN(c3cccc(Cl)c3)CC2)cc1	31.4
Cc1cccc(NC(=O)COC(=O)Cc2c[nH]c3ccccc23)c1C	6.74
Cc1nc(Sc2ccccc2)c(C#N)c(C)c1[N+](=O)[O-]	16.8
O=C(COC(=O)Cc1c[nH]c2ccccc12)Nc1cccc2ccccc12	2.45
COc1ccc(CNCc2ccc3ccccc3c2)c(OC)c1	23.2
CS(=O)(=O)c1ccc(Cl)c(NC(=O)COC(=O)Cc2c[nH]c3ccccc23)c1	-10
COc1ccc(CNC(=O)CCc2c[nH]c3ccccc23)cc1	-7.3
Cc1ccccc1SCC(=O)Nc1ccc(N2CCOCC2)cc1	0.16
Cc1ccc(/C=C(\NC(=O)c2ccccc2)C(=O)NC(Cc2ccccc2)C(=O)O)cc1 (stereo not drawn)	-0.85
O=c1c2ccccc2nc(-c2ccccc2)n1-c1ccccc1O	49.7
CC(OC(=O)c1cccs1)C(=O)NC1CCCCC1C (stereo not drawn)	-13.9
CCOC(=O)C1(CCOc2ccccc2)CCN(Cc2ccc(O)c(Cl)c2)CC1	63.3
O=C(c1ccc([N+](=O)[O-])cc1)N1CCN(Cc2ccccc2[N+](=O)[O-])CC1	12.7
